# Test system: NCI-H460
# TEST_DETAILS: NCI tumour cell line growth inhibition, 48 h
Active and inactive are the calls of the source. Rule as the data show it: active = GI50 up to about 1.1 µM and inactive = higher.
Outcome codes: true = active, false = inactive

- COMPOUND: "CCN(CC)c1ccc2cc(C(=O)Nc3ccc4[nH]c(C(=O)N5C[C@@H](CCl)c6c5cc(OC(=O)Nc5ccccc5)c5[nH]cc(C)c65)cc4c3)oc2c1 [CARZELESIN]"
  LABEL_VALUE: "true"
- COMPOUND: "CC(Br)CN1CCOCC1 (stereo not given)"
  LABEL_VALUE: "false"
- COMPOUND: "N#CC(c1ccccc1)c1nc2ccc(N)cc2[n+]([O-])c1C(C#N)c1ccccc1 (stereo not given)"
  LABEL_VALUE: "false"
- COMPOUND: "CCN1/C(=C/c2ccc3ccccc3[n+]2CC)C=Cc2ccccc21"
  LABEL_VALUE: "true"
- COMPOUND: "Cc1nn(C(=O)Cc2ccccc2)c2c1C(c1ccccc1)SC(=N)N2 (stereo not given)"
  LABEL_VALUE: "false"
- COMPOUND: "CC1C2(C)OC(=N)C(C#N)(C(C)O2)C1(C#N)C#N (stereo not given)"
  LABEL_VALUE: "false"
- COMPOUND: "[N-]=[N+]=Nc1ccc2c(c1)Sc1ccccc1N2CCCCN1CCN(C(=O)CCNC(=O)Cc2ccc(C(=O)c3ccccc3)cc2)CC1"
  LABEL_VALUE: "false"
- COMPOUND: "CCCN(CCC)C(=S)Sc1nc(C)nc(N2CCN(c3nc(C)nc(SC(=S)N(CCC)CCC)c3[N+](=O)[O-])CC2)c1[N+](=O)[O-]"
  LABEL_VALUE: "false"
- COMPOUND: "NC(=O)c1nnc2cc(F)c(F)cc2c1N"
  LABEL_VALUE: "false"
- COMPOUND: "CCOC(=O)CCC(C(=O)OCC)n1nc2ccc(Nc3c(C)[n+]([O-])c4cc(F)c(OCC)cc4[n+]3[O-])cc2n1 (stereo not given)"
  LABEL_VALUE: "false"
- COMPOUND: "COC(=O)C(=O)C(C(=O)OC)C(=O)C(=O)Nc1cc(Cl)c(C)cc1S(=O)(=O)O (stereo not given)"
  LABEL_VALUE: "false"
- COMPOUND: "O=C(NCCCCCCNC(=O)n1cc(F)c(=O)[nH]c1=O)NCCCOCCOCCCNC(=O)C(O)C(O)C(O)C(O)CO (stereo not given)"
  LABEL_VALUE: "false"
- COMPOUND: "C=CC1(c2ccc(Cl)c(Cl)c2)OCCO1"
  LABEL_VALUE: "false"
- COMPOUND: "CN1C(c2ccccc2)CC(=O)C(N)C1c1ccccc1 (stereo not given)"
  LABEL_VALUE: "false"
- COMPOUND: "Cc1cccc(-n2c(C)nc3ccc(NC4OC(CO)C(O)C(O)C4O)cc3c2=O)c1 (stereo not given)"
  LABEL_VALUE: "false"
- COMPOUND: "O=C1CCSc2c(cnc3ccccc23)N1"
  LABEL_VALUE: "false"
- COMPOUND: "CC1CN=C(Nc2cccc(C(F)(F)F)c2)S1 (stereo not given)"
  LABEL_VALUE: "false"
- COMPOUND: "Cc1ccc2c(=O)c3cccc(CC(=O)O)c3[nH]c2c1C"
  LABEL_VALUE: "false"
- COMPOUND: "C[C@@H]1C[C@@H]2C(=O)N(c3ccccc3)C(=O)[C@@H]2c2[nH]c3ccc(Br)cc3c21"
  LABEL_VALUE: "false"
- COMPOUND: "N#Cc1sc2c(c1OC(=O)c1ccc(C(F)(F)F)cc1)c(=O)n(-c1ccccc1)c(=S)n2-c1ccccc1"
  LABEL_VALUE: "false"
